Data origin: patent US20100280227A1

Consider the following binders; for each one, report its koff.
- target-entity: T1, variant human BR3-Fc fusion
- T1 construct: produced in CHO cells; also called vBR3-Fc; vhBR3-Fc
- test: SPR, vBR3-Fc on chip;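 also: Anti-BR3 antibodies passed over chip-bound BR3-Fc in PBS with 0.05% polysorbate 20, on and off rates fitted together globally to a 1:1 binding model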
One number for each entry, in s⁻¹.

INSERT INTO measurements (binder, parameter, result) VALUES
  ('Hu11G9-36 IgG (antibody, V domains shown, humanized IgG) VH: EVQLVESGGGLVQPGGSLRLSCAASGDSINFGYWNWVRQAPGKGLEWVGYISYSGSTYYNPSLKSRFTISRDTSKNTFYLQMNSLRAEDTAVYYCAALNDLFLYFDVWGQGTLVTVSS VL: DIQMTQSPSSLSASVGDRVTITCRSSQSLVHSNGNTYLHWYQQKPGKAPKLLIYKVSNRFSGVPSRFSGSGSGTDFTLTISSLQPEDFATYYCSQSTHVPPFTFGQGTKVEIKR', 'koff', 0.000231),
  ('Hu2.1-94 Fab (Fab, V domains shown, Fab) VH: EVQLVESGGGLVQPGGSLRLSCAASGDSITRGYWNWVRQAPGKGLEWVGYINYSGTTYYNPSLKSRFTISRDTSKNTLYLQMNSLRAEDTAVYYCATSHNTGEMDYWGQGTLVTVSS VL: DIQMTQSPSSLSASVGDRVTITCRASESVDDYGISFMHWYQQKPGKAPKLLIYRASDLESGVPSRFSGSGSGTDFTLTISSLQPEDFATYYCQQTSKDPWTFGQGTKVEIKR', 'koff', 0.000804),
  ('Hu9.1-88 Fab (Fab, V domains shown, Fab) VH: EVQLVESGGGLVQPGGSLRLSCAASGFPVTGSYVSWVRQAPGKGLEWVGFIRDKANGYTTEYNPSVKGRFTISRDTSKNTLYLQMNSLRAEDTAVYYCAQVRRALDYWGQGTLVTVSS VL: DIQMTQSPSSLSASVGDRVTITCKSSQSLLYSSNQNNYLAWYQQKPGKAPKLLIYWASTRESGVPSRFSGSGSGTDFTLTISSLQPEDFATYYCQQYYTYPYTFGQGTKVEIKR', 'koff', 0.000742),
  ('Hu9.1-88 IgG (antibody, V domains shown, humanized IgG; also called h9.1-88) VH: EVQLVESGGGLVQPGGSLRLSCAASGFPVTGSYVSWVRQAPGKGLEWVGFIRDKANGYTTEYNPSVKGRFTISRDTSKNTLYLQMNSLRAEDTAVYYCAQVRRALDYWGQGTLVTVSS VL: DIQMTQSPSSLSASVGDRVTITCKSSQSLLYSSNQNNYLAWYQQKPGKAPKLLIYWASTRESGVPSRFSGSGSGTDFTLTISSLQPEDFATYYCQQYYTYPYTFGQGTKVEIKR', 'koff', 0.000262),
  ('chimeric 11G9 IgG (antibody, V domains shown, also called Ch 11G9 IgG) VH: DVQLQESGPSLVKPSQTLSLTCSVTGDSITSGYWNWIRKFPGNKLEYMGYISYSGSTYYNPSLKSRISITRDTSKNQFYLQLLSVTTEDTATYYCAGLDGLYWYFDVWGAGTLVTVSS VL: DIVMTQTPLSLPVSLGDQASISCRSSQSLVHSNGNTYLHWYLQKPGQSPKLLIYKVSNRFSGVPDRFSGSGSGTDFTLKISRVEAEDLGVYFCSQSTHVPPFTFGSGT', 'koff', 0.00218),
  ('Hu2.1-46 Fab (Fab, V domains shown, Fab) VH: EVQLVESGGGLVQPGGSLRLSCAASGDSITRGYWNWVRQAPGKGLEWVGYINYSGTTYYNPSLKSRFTISRDTSKNTFYLQMNSLRAEDTAVYYCANSNFYGAMDYWGQGTLVTVSS VL: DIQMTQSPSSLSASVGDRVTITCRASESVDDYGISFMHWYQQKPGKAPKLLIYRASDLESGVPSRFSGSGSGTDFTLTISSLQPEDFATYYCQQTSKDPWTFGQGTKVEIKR', 'koff', 0.000257);

For each entry beneath this line, provide reported koff.
1. Hu2.1-40 Fab (Fab, V domains shown, Fab) VH: EVQLVESGGGLVQPGGSLRLSCAASGDSITRGYWNWVRQAPGKGLEWVGYINYSGTTYYNPSLKSRFTISRDTSKNTFYLQMNSLRAEDTAVYYCATTLPYGAMDYWGQGTLVTVSS VL: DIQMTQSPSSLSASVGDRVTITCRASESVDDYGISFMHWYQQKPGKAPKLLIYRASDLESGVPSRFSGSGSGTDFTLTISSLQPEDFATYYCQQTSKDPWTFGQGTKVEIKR
2. Hu11G9-46 IgG (antibody, V domains shown, humanized IgG) VH: EVQLVESGGGLVQPGGSLRLSCAASGDSITSGYWNWVRQAPGKGLEWVGYISYSGSTYYNPSLKSRFTISRDTSKNTFYLQMNSLRAEDTAVYYCAGLNDLYLYFDVWGQGTLVTVSS VL: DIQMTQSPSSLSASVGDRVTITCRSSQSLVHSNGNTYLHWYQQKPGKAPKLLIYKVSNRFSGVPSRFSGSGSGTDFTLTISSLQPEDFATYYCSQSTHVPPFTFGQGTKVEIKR
3. chimeric 2.1 IgG (antibody, V domains shown, also called Ch 2.1 IgG; ch 2.1) VH: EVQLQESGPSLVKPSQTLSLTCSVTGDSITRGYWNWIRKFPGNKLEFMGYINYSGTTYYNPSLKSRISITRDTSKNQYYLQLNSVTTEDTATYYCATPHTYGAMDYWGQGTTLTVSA VL: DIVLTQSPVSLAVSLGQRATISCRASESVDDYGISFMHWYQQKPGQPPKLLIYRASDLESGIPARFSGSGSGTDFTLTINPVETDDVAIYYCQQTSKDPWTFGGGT

Key:
1: 0.00123; 2: 0.000186; 3: 3.8e-05

For each entry beneath this line, provide reported koff.
1. Hu9.1-RF Fab (Fab, V domains shown) VH: EVQLVESGGGLVQPGGSLRLSCAASGFTVTAYYMSWVRQAPGKGLEWVGFIRDKANGYTTEYNPSVKGRFTISRDTSKNTFYLQMNSLRAEDTAVYYCAQVRRALDYWGQGTLVTVSS VL: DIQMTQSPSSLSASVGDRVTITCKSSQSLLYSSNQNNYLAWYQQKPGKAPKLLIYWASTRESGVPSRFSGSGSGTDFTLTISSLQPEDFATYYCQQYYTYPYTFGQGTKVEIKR
2. Hu2.1-94 IgG (antibody, V domains shown, humanized IgG; also called h2.1-94) VH: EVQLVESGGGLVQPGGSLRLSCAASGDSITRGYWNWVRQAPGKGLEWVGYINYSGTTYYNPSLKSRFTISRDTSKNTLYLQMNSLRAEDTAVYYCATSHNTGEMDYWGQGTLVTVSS VL: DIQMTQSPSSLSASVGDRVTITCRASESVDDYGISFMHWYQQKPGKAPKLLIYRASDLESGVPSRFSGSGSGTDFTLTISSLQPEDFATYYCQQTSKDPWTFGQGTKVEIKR

Key:
0.00186
0.000121
